experiment: Nuclear factor erythroid 2-related factor 2/antioxidant responsive element (Nrf2/ARE) small molecule agonists: qHTS cell viability counter screen in human keratinocytes (AID 1919968); details: KeratinoSens HaCaT ARE cells viability, CellTiter-Fluor, 24 h; series mostly up to 92.4 µM; also: % is scaled to controls: 0 for no effect and ±100 for the full control effect; nearly all actives have a fitted effect of over 55% in size
Results filed as inconclusive are left out. Activity calls are given as the source filed them. Calls follow the shape of the dose curve; as a rule, active = well fitted cell-killing curve with a large enough effect in the repeat runs; inconclusive = weak or mixed curves, or effect the other way; inactive = flat fitted curve, though single readings scatter.
readout type: activity change, negative = cytotoxicity

Known activity change, negative = cytotoxicity results, listed for orientation:
COc1cc(C(C)C)c2c(c1)S(=O)(=O)N(COc1cc(=O)n3cccc(OCCN4CCCCC4)c3n1)C2=O; -10.3% [at 19 µM] (inactive)
CCCCCCCCCCCCCCCCCCCl; -0.678% [at 8.39 µM] (inactive)
C=CCCCCCCCCCCCCCC; 5.7% [at 19 µM] (inactive)
Nc1ccc(/C=C/c2ccc(N)cc2S(=O)(=O)O)c(S(=O)(=O)O)c1; -4.83% [at 0.349 µM] (inactive)
CC1=CC(=C(c2ccc(N)cc2)c2ccc(N)cc2)C=CC1=N; -10.2% [at 8.39 µM] (inactive)

Name the recorded activity change, negative = cytotoxicity of the item NC(N)=NCCN1CCCCCCC1 in your answer.
-3.49% [at 0.349 µM] (inactive)

----------
experiment: p53 small molecule agonists, cell-based qHTS assay with human liver microsomes: qHTS cell viability counter screen (AID 1963579); details: p53RE-bla HCT-116 viability, ATP luminescence, 16 h, HLM; series mostly up to 66 µM; also: nearly all actives have a fitted effect of over 45% in size
Inconclusive results are not listed. The source made the active and inactive calls. Calls follow the shape of the full dose curve.
Log the outcome using a class from active, inactive

CCCCCCC(C)Nc1ccc(Nc2ccccc2)cc1 (stereo unspecified); active
O=C(O)[C@@H]1CSCN1; inactive

Answer briefly: the call reported for CC(C)(c1ccc(Oc2ccc(N)cc2)cc1)c1ccc(Oc2ccc(N)cc2)cc1 in this assay.
inactive

Answer briefly: the call reported for CCC(C)n1ncn(-c2ccc(N3CCN(c4ccc(OC[C@H]5CO[C@](Cn6cncn6)(c6ccc(Cl)cc6Cl)O5)cc4)CC3)cc2)c1=O (stereo partly specified) in this assay.
inactive

Answer briefly: the call reported for CCc1cc(C2=C(C(=O)O)N(c3ccccc3C(F)(F)F)S(=O)(=O)c3ccccc32)cc2c1OCO2 in this assay.
inactive

Answer briefly: the call reported for OC(C#CCN1CCCC1)(c1ccccc1)c1ccccc1 in this assay.
inactive

----------
experiment: Nuclear factor erythroid 2-related factor 2/antioxidant responsive element (Nrf2/ARE) small molecule agonists: qHTS cell viability counter screen in human keratinocytes (AID 1919968); conditions: KeratinoSens HaCaT ARE cells viability, CellTiter-Fluor, 24 h; series mostly up to 92.4 µM; also: % is scaled to controls: 0 for no effect and ±100 for the full control effect; nearly all actives have a fitted effect of over 55% in size
Records with an inconclusive call do not appear. Activity calls are given as the source filed them. Calls follow the shape of the dose curve; as a rule, active = well fitted cell-killing curve with a large enough effect in the repeat runs; inconclusive = weak or mixed curves, or effect the other way; inactive = flat fitted curve, though single readings scatter.
Reported activity change, negative = cytotoxicity is given for each of the following compounds.

Known activity change, negative = cytotoxicity results, listed for orientation:
O=C(C(=O)c1ccc(Br)cc1)c1ccc(Br)cc1; -1.93% [at 19 µM] (inactive)
CCCCCCCCCCCCCOC(=O)CCSCCC(=O)OCCCCCCCCCCCCC; -1.71% [at 19 µM] (inactive)
O=S(=O)(O)c1cc(S(=O)(=O)O)c2ccc3c(S(=O)(=O)O)cc(S(=O)(=O)O)c4ccc1c2c43; 0.791% [at 19 µM] (inactive)
CCCC(=O)O[C@]1(C(=O)COC(=O)CC)CC[C@H]2[C@@H]3CCC4=CC(=O)CC[C@]4(C)[C@H]3[C@@H](O)C[C@@]21C; -1.05% [at 19 µM] (inactive)

As a next step, examine the compound that follows.
Name the recorded activity change, negative = cytotoxicity of the item NC(Cc1ccc(F)cc1)C(=O)O (stereo not given) in your answer.
2.68% [at 8.39 µM] (inactive)
